Taken from paper PMC10590056.

system: KYSE-30 cells; experiment: MTT assay for cell proliferation, KYSE-30; assay type: cell-based; set-up: key: inhibition rate = 1 - mean A490 sample/mean A490 control (fraction); details: KYSE-30, given as fraction; second of three experiments
Would you mind telling me the reported Inhibitory rate of each entry?

COc1c2n(cc(C(=O)Nc3cccc(-c4cn(-c5ccccc5)nn4)c3)c1=O)CC1OCC(C)N1C2=O (stereo not shown) ... 0.4151

Batch of 6 compounds: report Inhibitory rate for each.
1. COc1c2n(cc(C(=O)Nc3cccc(-c4cn(-c5ccc(C(F)(F)F)cc5)nn4)c3)c1=O)C[C@H]1OC[C@H](C)N1C2=O
2. COc1c2n(cc(C(=O)Nc3cccc(-c4cn(-c5ccccc5C)nn4)c3)c1=O)C[C@H]1OC[C@H](C)N1C2=O
3. COc1c2n(cc(C(=O)Nc3cccc(-c4cn(-c5ccccc5F)nn4)c3)c1=O)C[C@H]1OC[C@H](C)N1C2=O
4. COc1c2n(cc(C(=O)Nc3cccc(-c4cn(-c5cccc(Br)c5)nn4)c3)c1=O)CC1OCC(C)N1C2=O (stereo not shown)
5. COc1c2n(cc(C(=O)Nc3cccc(-c4cn(-c5ccccc5I)nn4)c3)c1=O)CC1OCC(C)N1C2=O (stereo not shown)
6. COc1c2n(cc(C(=O)Nc3cccc(-c4cn(-c5ccc(F)cc5)nn4)c3)c1=O)CC1OCC(C)N1C2=O (stereo not shown)

[0.2142, 0.2997, 0.4582, 0.5247, 0.4302, 0.5323]
